Measured target: Corticotropin-releasing factor receptor 1 (Homo sapiens)
Sequence (P34998 whole entry): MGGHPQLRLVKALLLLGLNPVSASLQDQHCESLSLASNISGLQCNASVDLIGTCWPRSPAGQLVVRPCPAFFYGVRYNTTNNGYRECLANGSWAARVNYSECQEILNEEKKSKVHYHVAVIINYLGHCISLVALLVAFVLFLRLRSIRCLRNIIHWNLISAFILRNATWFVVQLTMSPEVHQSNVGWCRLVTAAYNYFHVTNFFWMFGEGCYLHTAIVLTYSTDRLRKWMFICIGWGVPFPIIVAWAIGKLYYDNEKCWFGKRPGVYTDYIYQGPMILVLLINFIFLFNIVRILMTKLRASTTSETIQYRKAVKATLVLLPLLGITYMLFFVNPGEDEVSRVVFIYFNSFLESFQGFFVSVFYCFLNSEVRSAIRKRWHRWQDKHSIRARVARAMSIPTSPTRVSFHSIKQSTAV
Experimental details: Antagonist activity at human corticotropin-releasing factor receptor 1 expressed in CHO-K1 cells assessed as inhibition of CRF-induced cAMP production after 15 mins by enzyme immunoassay
Type: functional, cell-based
Metric name: EC50 (nM)

- Compound: "CCC(CC)Nc1c2c(nc3c(-c4ccc(OC)cc4Cl)c(C)nn13)CCO2"
  Unit string: "nM"
  Measured value: 4
- Compound: "CCC(CC)Nc1c2c(nc3c(-c4c(C)cc(OC)cc4C)c(C)nn13)CCC2"
  Unit string: "nM"
  Measured value: 80
- Compound: "CCC(CC)Nc1c2c(nc3c(-c4ccc(OC)cc4Cl)c(C)nn13)CCC2 [ONO-2333MS]"
  Unit string: "nM"
  Measured value: 40
- Compound: "CCC(CC)Nc1c2c(nc3c(-c4ccc(Cl)cc4Cl)c(C)nn13)CCC2"
  Unit string: "nM"
  Measured value: 200
- Compound: "CCC(CC)Nc1cc(C)nc2c(-c3ccc(OC)cc3Cl)c(C)nn12"
  Unit string: "nM"
  Measured value: 31
- Compound: "CCC(CC)Nc1c2c(nc3c(-c4ccc(OC)cc4C)c(C)nn13)CCC2"
  Unit string: "nM"
  Measured value: 170
- Compound: "CCC(CC)Nc1c2c(nc3c(-c4ccc(OC)cc4Cl)c(C)nn13)OCC2"
  Unit string: "nM"
  Measured value: 8
- Compound: "CCC(CC)Nc1c2c(nc3c(-c4ccc(OC)cc4C)c(C)nn13)CCO2"
  Unit string: "nM"
  Measured value: 640
- Compound: "CCC(CC)Nc1c2c(nc3c(-c4ccc(OC)cc4Cl)c(C)nn13)COC2"
  Unit string: "nM"
  Measured value: 66
- Compound: "CCC(CC)Nc1c2c(nc3c(-c4ccc(OC(F)F)cc4Cl)c(C)nn13)CCC2"
  Unit string: "nM"
  Measured value: 200

* * *

Experimental details: Oral bioavailability in rat at 3 mg/kg
Assay type: ADME, organism-based
Cond: in vivo
Metric name: bioavailability

- Molecule: "CCC(CC)Nc1c2c(nc3c(-c4ccc(OC)cc4Cl)c(C)nn13)CCC2 [ONO-2333MS]"
  Metric name: "bioavailability"
  Measured value: "22%"
